target.under.test: human 5-HT1A receptor (Homo sapiens (Human), UniProt P08908)
Sequence (P08908 whole entry): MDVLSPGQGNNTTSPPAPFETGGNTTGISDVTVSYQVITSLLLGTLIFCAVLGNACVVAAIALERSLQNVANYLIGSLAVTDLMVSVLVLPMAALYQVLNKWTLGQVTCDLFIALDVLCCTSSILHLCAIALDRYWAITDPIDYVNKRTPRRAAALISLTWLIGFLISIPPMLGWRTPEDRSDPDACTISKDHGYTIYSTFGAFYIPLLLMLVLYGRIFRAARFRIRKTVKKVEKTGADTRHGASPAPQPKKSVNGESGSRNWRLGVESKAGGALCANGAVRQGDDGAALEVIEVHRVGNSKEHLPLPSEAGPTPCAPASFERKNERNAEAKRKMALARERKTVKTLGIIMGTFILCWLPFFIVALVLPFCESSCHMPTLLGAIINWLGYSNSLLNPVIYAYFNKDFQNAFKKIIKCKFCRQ
procedure.text: Test 2: agonist activity for human 5-HT1A receptor ([35S]GTPγS binding)
Assay type: biochemical
experimental.parameters: agonist activity in the presence of 10 μM of compound, relative to 100 μmol/L 5-HT
metric: Emax at 10 µM (%)
Numbers only, in %.

Below are 8 compounds. Give each one its Emax at 10 µM.
1. Cn1ncc2c1CCN(CCN1CCN(c3noc4ccccc34)CC1)C2=O
2. COc1cc2c(cn1)C(=O)N(CCN1CCN(c3nsc4ccccc34)CC1)CC2
3. Cn1ccc2c1CCN(CCN1CCN(c3nsc4ccccc34)CC1)C2=O
4. Cn1cnc2c1C(=O)N(CCN1CCN(c3nsc4ccccc34)CC1)CC2
5. O=C1c2[nH]ncc2CCN1CCN1CCC(c2noc3ccccc23)CC1
6. O=C1c2cncnc2CCN1CCN1CCC(c2noc3ccccc23)CC1
7. Cc1noc2ccn(CCN3CCC(c4noc5ccccc45)CC3)c(=O)c12
8. Cc1ccc2onc(C3CCN(CCN4CCc5cccnc5C4=O)CC3)c2c1

Result:
48
69
63
58
43
61
59
39

Below are 3 compounds. Give each one its Emax at 10 µM.
1. CC1CN(CCN2CCC(c3noc4ccccc34)CC2)C(=O)c2ccn(C)c21 (centres unmarked)
2. Cc1nn(C)c2c1C(=O)N(CCN1CCN(c3noc4ccccc34)CC1)CCC2
3. O=C1c2ncoc2CCN1CCN1CCC(c2noc3ccccc23)CC1

Result:
[61, 43, 11]

====

procedure.text: Test 4: metabolic stability test in human hepatic microsome
Type: in vitro ADME
experimental.parameters: 0.1 mg/mL microsome, 0.1 μmol/L compound, 37° C., 30 minutes
Description: Test 4: Metabolic Stability Test in Human Hepatic Microsome The stability of the present compound in human hepatic microsome metabolism was evaluated as mentioned below. Human hepatic microsome was obtained from Xenontech. […] The residual ratio of the test compound in each sample after 30 minutes was measured by LC-MS, and the metabolic stability in human hepatic microsome was calculated from the following formula. […]
Assign Metabolic stability in human hepatic microsome to each entry below.

Task: Which measured Metabolic stability in human hepatic microsome value corresponds to `O=C1c2cccnc2CCN1CCN1CCC(c2noc3cc(F)ccc23)CC1` ?
Result: <0.05 mL/min/mg protein

Task: Try this molecule too: `Cc1ncc2c(=O)n(CCN3CCC(c4noc5ccccc45)CC3)ccc2n1`
Result: <0.05 mL/min/mg protein

Task: Try this molecule too: `O=C1c2cn[nH]c2CCCN1CCN1CCC(c2noc3ccccc23)CC1`
Result: <0.01 mL/min/mg protein

Task: Try this molecule too: `O=C1c2cnn(C3CC3)c2CCN1CCN1CCC(c2noc3ccccc23)CC1`
Result: <0.05 mL/min/mg protein

New cases:
Task: Which measured Metabolic stability in human hepatic microsome value corresponds to `Cn1ccc2c1CCCN(CCN1CCC(c3noc4ccccc34)CC1)C2=O` ?
Result: <0.01 mL/min/mg protein

====

Assign Ki to each entry below.
target.under.test: human D2 receptor (Homo sapiens (Human), UniProt P14416)
Sequence (P14416 whole entry): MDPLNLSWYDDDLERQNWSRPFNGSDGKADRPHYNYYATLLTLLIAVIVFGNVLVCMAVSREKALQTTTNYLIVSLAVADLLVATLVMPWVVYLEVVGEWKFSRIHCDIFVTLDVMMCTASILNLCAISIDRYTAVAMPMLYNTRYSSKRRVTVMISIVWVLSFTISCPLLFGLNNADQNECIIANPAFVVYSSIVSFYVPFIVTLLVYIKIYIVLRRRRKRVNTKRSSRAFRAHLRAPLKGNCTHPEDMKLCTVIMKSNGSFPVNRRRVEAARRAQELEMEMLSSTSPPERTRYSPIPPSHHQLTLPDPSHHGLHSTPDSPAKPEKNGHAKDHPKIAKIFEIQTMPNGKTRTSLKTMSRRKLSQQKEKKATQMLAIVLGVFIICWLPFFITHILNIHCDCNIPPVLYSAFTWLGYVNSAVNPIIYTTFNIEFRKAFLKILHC
procedure.text: Test 1: binding activity for human D2 receptor ([3H]Spiperone, CHO cell membrane fraction)
experimental.parameters: human D2 receptor, [3H]Spiperone

Task: Which measured Ki value corresponds to O=C1c2nc(Cl)ccc2CCN1CCN1CCN(c2noc3ccccc23)CC1 [Example 144] ?
Result: > 10 µM

Task: Try this molecule too: COc1ccc2c(C3CCN(CCN4CCc5cccnc5C4=O)CC3)noc2c1 [Example 149]
Result: > 10 µM

We next turn to a different molecule, shown below.
Task: Which measured Ki value corresponds to Cn1ncc2c1CCN(CCN1CCN(c3noc4ccccc34)CC1)C2=O [Example 131] ?
Result: > 10 µM
